test: yeast display, Sf9 membrane polyspecificity reagent, FACS + sequencing; frameworks hold sequencing errors
reportedProperty: polyreactivity (PSR sort gate)

seqString	reportedProperty	reading
QVQLVESGGGLVQAGGSLRLSCAASGSTFDYNSMGWYRQAPGKERELVATINDSGGNTYYADSVKGRFTISRDNAKNTVYLQMNSLKPEDTAVYYCATVGYLYTPVVVTWWDWGDYWGQGTQVTVSS	polyreactivity (PSR sort gate)	low polyreactivity
QVQLVDSGGGLVQAGGSLRLSCAASGSIFRRNAMGWYRQAPGKERELVAAITRSGSGTSYADSVKGRFTISLDNAKNTVYLQMNSLKPEDTAVYYCNAAYVYGDQARGGYWGQGTQVTVSS	polyreactivity (PSR sort gate)	high polyreactivity
QVQLEESGGGLVQAGGSLRLSCAASGSTFRLYAMGWYRQAPGKERELVATITNGGNTYYADSVKGRFTISRDNAKNTVYLQMNSLKPEDTAVYYCAKRLSRRYDYWGQGTQGTVSS	polyreactivity (PSR sort gate)	low polyreactivity
HVQLVESGGGLVQAGGSLRLSCAASGSTFFWYAMGWYRQATGKERELVAAISKTGGSTYYADSVKGRFTISRDNAQNTVYLQMNSLKPEDTAVYYCNAVRYASKAARSFDYWGQGTQVTVSS	polyreactivity (PSR sort gate)	low polyreactivity

Now look at this entry.
## Task Report polyreactivity (PSR sort gate) for QVQLVESGGGLVQAGGSLRLSCAASGFNFYSNAMGWYRQEPGKERELVADINRGGTSTYYADSVKGRFTISRDNAKNTVYLQMNSLKPEDTAVYYCNAGLRYRSRLWNIYWYDYWGQGTQVTVSS please.
## Result high polyreactivity

----------
assay: yeast display, Sf9 membrane polyspecificity reagent, FACS + sequencing; frameworks hold sequencing errors
reportedProperty: polyreactivity (PSR sort gate)

>>> df
                                  seqstring              reading
0  QVQLVESGGGLVQAGGSLRLSCAASGRIYWNTMGWYIQAPGKERELVASISTGGGRTYYADSVKGRFTISRDNAKNTVYLQMNSLKPEDTAVYYCAVRSYGHGFDYWGQGTQVTVSS  high polyreactivity
1  QVQLVESGGGLVQAGGSLRLSCAASGFTFINYAMGWYRQAPGKERELVAAISSSSDRTYDADSVKGRFTISRDNAKNTVYLQMNSLKPEDTAVYYCAAYAQKRYYWGQGTQVNVSS  high polyreactivity
2  QVQLVESGGGLVQAGGSLRLSCAASGRIFGYTMGWYRPAPGKERELVAAISRSAGSTYYADSVKGRFTISRDNAKNTVYLQMNSLKPEDTAVYYCAATGRYYREYDYWGQGTQVTVSS  high polyreactivity

----------
test: yeast display, Sf9 membrane polyspecificity reagent, FACS + sequencing; frameworks hold sequencing errors
reportedProperty: polyreactivity (PSR sort gate)

>>> print(df.to_string())
                                  seqstring              reading
0  QVQLVESGGGLVQAGRTLRLRCAASVSTVPYAMGWYSPAPGKERELVAAISKSAGRSYYADYVKGRFTISRENAKNTVYLQMNSLKPEDTAVYYCAARQSYYGHDYWGQGTQVTVSS  high polyreactivity
1  QVQLVESGGGLVQAGGSLRLSCAASGSIFYRYAMGWYRPAPGKERELVAAISSTGSTYYADSVKGRFTISRDNAKNTVYLQMNSLKPEDTAVYYCAARQGFRSYRRYDYWGQGTQVTVSS  high polyreactivity

----------
test: yeast display, Sf9 membrane polyspecificity reagent, FACS + sequencing; frameworks hold sequencing errors
reportedProperty: polyreactivity (PSR sort gate)

seqString	reading
QVQLVESGGGLVQAGGSLRLSCAASGFTIYNNVMVWYRQAPGKERELVAAITSSGGRTYYADSVKGRFTISRDIAKNTVYLQMNSLKPEDTAVYYCNALYFRKGGYWGQGTQVTVSS	high polyreactivity
QVQLVESGGGLVQAGGSLRLSCAASGSTSPVYAMGWYRQAPGKERELVAAISSSGSRTYYADSVKGRFTISRDNAKNTVYLQMNCLKPEDSAVYYCAADWWAWRAYYYWGQGTQVTVSS	high polyreactivity
QVQLVESGGGLVQAGGSIRLTCAASGSIFVFYAMGWYRQAPGKEREFVATITWSGTSTYYADSVKGRFSISRDNAKNTVYLQMNSLKPEDTAVYYCAARYLGGRRSGDYSRYYWGQGTQVTVSS	high polyreactivity

----------
experiment: yeast display, Sf9 membrane polyspecificity reagent, FACS + sequencing; frameworks hold sequencing errors
reportedProperty: polyreactivity (PSR sort gate)

seqString	reportedProperty	reading
QVQLVESGGGLVQAGGSLRLSCAASGSTFARYAMGWYRHAPGKETELVAGIWNTGRTYYADSVKGRFTISRDNAKNTVYLQMNSLKPEDTAVYYCAALYNSPNVTYYYWGQGTQVTVSS	polyreactivity (PSR sort gate)	high polyreactivity
QVQLVESGGGLVQAGGSLRLSCAASGYIFSAYAMGWSRQAPGKERELVAVITSGGGTYYADSVKGRFTISRDNAKNTVYLLMNSLKTEDTAVYYCAAGPLCPYASRYGYWGQGTQVTVSS	polyreactivity (PSR sort gate)	high polyreactivity
QVQLVESGGGLVKAGGSLRLSCAASGFTLSRYTKGWYRQAPGKEWELVAAISWSGGSTYYADSVKGRFTISRDNAKNTVYLQMNSLKPEDSAVYYCAARYHYYGLYTSGDYYWGQGTQVTVSS	polyreactivity (PSR sort gate)	high polyreactivity
QVQHVESGGGLVQAGGSLRLTCAASGNTFWWNAMGWYRQAPGKERELVAAISWRGGSTYYADSVKGRFTISRDNAKNTVYLQMKCLKPEDTAVYYCAKRNYHDESVVEEDYWGQGTQVTVSS	polyreactivity (PSR sort gate)	low polyreactivity

## Task Report polyreactivity (PSR sort gate) for QVQLVESGGGIVQAGGSLRLSCAASGLTFPQYAMGWYTQAPGKERELVAAISWNGGITYYADSVKGRFTISRDYAKNTVYLQMNSLKPEDTAVYYCNDDGGYGDYYYWGQGTQVTVSS please.
## Result low polyreactivity

## Task Report polyreactivity (PSR sort gate) for QVQLVESGGGLVQAGGSLRLSCAAYGSILARYAMGWYRQAPGKERELVAAISYNGGSTYYADSVKGRFTISRDNAKNTVYLQMNSLKPEDTAVYYCAKAYDTTLTYNFWGQGTQVTVSS please.
## Result low polyreactivity

## Task Report polyreactivity (PSR sort gate) for QVQLVESGGGLVQAGGRLRLSCAASGSIISYYAMGWYRQAPGKERELVATITSSGSTYADSVKGRFTISRDNAKNTVYLQMNSLKPEDTAVYYCNADSGYSEYWGVDVAYDYWGQGTQVTVSS please.
## Result low polyreactivity

## Task Report polyreactivity (PSR sort gate) for QVQLVESGGGLVQAGGSLRLSCAASGRIFGIYAMGWYRQAPGKERELVAAISYSGGSTYYADSVKGRFTISRDNAKNTVYLQMNSLNPEDTAVYYCNADYYASYYPYYSIRLDYWGQGTQVTVSS please.
## Result low polyreactivity

## Task Report polyreactivity (PSR sort gate) for QVQLVESGGGLVQAGGSLRLSCAASGRIFGYYGMGWYRPAPGKERELVAAITYRGGSTYYADSVKGRFTISRDNAKNTVYLQMNSLKPEDTAVYYCAADGYSHYPYLYDYWGQGTQVTVSS please.
## Result low polyreactivity

----------
experiment: yeast display, Sf9 membrane polyspecificity reagent, FACS + sequencing; frameworks hold sequencing errors
reportedProperty: polyreactivity (PSR sort gate)

seqString	reading
QVQLVESGGGKVQAGGSLRLICAASGSTFTYNTMGWYRQAPGKERELVAAISSGGSTYYADSVKGRFTISRDNAKNTVYLQLNSLNPVDTAVYYCAATAQKYSRYGSRYYYWGQGTQVTVSS	high polyreactivity
QVQLVESGGGLVQAGGSLRLSCAATGLTLKENVMGWYRQAPGKERELVAAISTGASTYYADSVKGRFTISRDNAKNTVYLQMNSLKPEDTAVYYCAKRVTRCYGYWGQGTQVTVSS	high polyreactivity
QVQLVESGGGLVQAGGSLRLSCAASGFIFRNYAMGWYRQAPGKERELVAAISRGGRTNYADSVKGLFTISRDNAKNTVYLQMNSLKPEDTAVYYCNAVTVGLYDYWGQVTQVTVSS	high polyreactivity

----------
assay: yeast display, Sf9 membrane polyspecificity reagent, FACS + sequencing; frameworks hold sequencing errors
reportedProperty: polyreactivity (PSR sort gate)

Known results for sequences:
seqString	polyreactivity (PSR sort gate)
QVQLVESGGGLVQAGGSLRLSCAASGRIVVYNVMGGYRQAPGKERELVAAISWGTGSTYADSVKGRFTISRDNAKNTVYIQMNSLKPEDTAVYYCAADSFIPPYDHWGQGTQVTVSS	low polyreactivity
QVQLVESGGGLVQAGGSLRLSCAASGRIFVYNAMGWYIQAPGKERELVAAISWSTGRTNYADSVKGRFTISRDNAKNTVYLQMNSLKPDDTAVYYCAAEWAWEYYSFWSEYDYWGQGTQVTVSS	high polyreactivity
QVQLVESGGGLLQAGGSLRLICAASGRIFQTYAMGWYRQAPGKERELVARIRLSGGSTYSADSVKGRFTISRDNAKNTGYLQKNSQKPEDTAVYSCAARFSRARFTDPYYYWGQGTQVTVSS	high polyreactivity
QVQLVESGGGLVQAGGSLRLSCSASGSTFYLYAMGWYRQAPGKEREFVADISLSGDSTYYADSVKGRFTISRDNAKNTVYLQMNSLKPEDTAVYYCAADVFYPGPWSYEYWGQGTQVTVSS	low polyreactivity
QVQLVESGGGLVQAGGSLRLSCAASGSIFTYYAMGWYRQAPGKERELVAAISSDGSTTYADSVKGRFTISRDNAKNTVYLQMNSLKPEDTAVLLLQRSGLRRSGVWFDYWGQGTQVTVSS	low polyreactivity
QVQLVESGGGIVQAGGRLRLSCAASGSIFYYYAKGWYRQAPGTERELVASINSGVSTYYADSVKGRFTNSRDNAKNTVYLQMNSLKPVDTAVYYCAAPGHNLYGSWFSWTPDTYDYWGQGNQVTVSS	low polyreactivity

## Task Report polyreactivity (PSR sort gate) for QVQLVESGGGLVQAGGSLRLSCAASGSIFGRYVMGWYRQAPGKERELVATISSGGSTYYADSVKGRFTISRDNAKNTVYLQMNSLKPEDTAVYYCAASYSRFVDWIGDPGYDYWGQGTQVTVSS please.
## Result low polyreactivity

## Task Report polyreactivity (PSR sort gate) for QVQLVESGGGLVQAGGKLRLSCAASGSIFSDYTMGWYRQAPGKERELVAVITLSSGSTYYADSVKGRFTISRDNAKNTVYLQMNSLKPEDTAVYYCAADGWYYFGSGVFEYDYWGQGTQVTVSS please.
## Result low polyreactivity

## Task Report polyreactivity (PSR sort gate) for QVQLVESGGGLVQAGGRLRLSCAASGRIFKSYAMGWYRQAPGKERELVATISISGGSTYYADSVKGRFTISRDNAKNTVYLQMNSLKPEDTAVYYCASDRYGLGDYDYWGQGTQVTVSS please.
## Result low polyreactivity

## Task Report polyreactivity (PSR sort gate) for QVQLVESGGGLVQAGGSLSLSCAASGSTFGYYARGWYRQAPGKERELVATITIGGYTHYADSVKGRFTISRDNAKNTVYLQMNSLKPEDTAFYYCAKRYYTNRHSRAFGYWGQGTQVTVSS please.
## Result high polyreactivity

## Task Report polyreactivity (PSR sort gate) for QVQLVESGGGLVQAGGSLRLSCAASGNIFRVYDMGWYRQAPGKERELVAVIRWSSGRTYYADSVKGRFTISRDNAKNTVYLQMNSLKPEDTAVYYCATKLWRVPRNSHYDSYEYWGQGTQVTVSS please.
## Result high polyreactivity
